# TARGET: recombinant JAK2 (JAK2 JH1 domain) (Homo sapiens)
# Construct: 50 nM JAK2 JH1 domain (Upstate)
# Sequence (O60674 849-1124 limits assumed): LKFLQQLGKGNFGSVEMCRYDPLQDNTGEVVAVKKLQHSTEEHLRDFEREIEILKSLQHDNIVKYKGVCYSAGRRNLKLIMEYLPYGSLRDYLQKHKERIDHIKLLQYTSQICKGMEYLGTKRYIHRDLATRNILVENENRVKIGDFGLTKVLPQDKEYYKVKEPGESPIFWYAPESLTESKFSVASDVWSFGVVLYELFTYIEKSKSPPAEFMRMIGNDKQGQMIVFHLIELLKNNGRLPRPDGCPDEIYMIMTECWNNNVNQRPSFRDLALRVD
# METHOD SUMMARY: JAK2 Kinase Activity Inhibition Assay and Determination of IC50 (HTRF)
# RUN PARAMETERS: 50 nM JAK2 JH1 domain, 15 μM MgATP, 80 min at room temperature
READOUT KIND: IC50 (nM)

| STRUCTURE | TARGET | UNIT NAME | VAL |
| --- | --- | --- | --- |
| CC(C)(O)c1cc(F)c(-c2cc(C(N)=O)c(Nc3ccc(C=O)cc3)s2)c(F)c1 | recombinant JAK2 (JAK2 JH1 domain) (Homo sapiens) | nM | 410 |

I = CNC(=O)c1ccc(Nc2sc(-c3c(F)cc(C(C)(C)O)cc3F)cc2C(N)=O)cc1
II = CC(=O)c1ccc(Nc2sc(-c3c(F)cc(C(C)(C)O)cc3F)cc2C(N)=O)cc1
q: Pick the one with the larger IC50: I vs II State your choice using its label.
a: II
(II: 110 nM, I: 32 nM)
